- system under test: a4b7(G629S) (human) (UniProt P13612)
- Sequence (P13612 34-1032, chain 1 of 2): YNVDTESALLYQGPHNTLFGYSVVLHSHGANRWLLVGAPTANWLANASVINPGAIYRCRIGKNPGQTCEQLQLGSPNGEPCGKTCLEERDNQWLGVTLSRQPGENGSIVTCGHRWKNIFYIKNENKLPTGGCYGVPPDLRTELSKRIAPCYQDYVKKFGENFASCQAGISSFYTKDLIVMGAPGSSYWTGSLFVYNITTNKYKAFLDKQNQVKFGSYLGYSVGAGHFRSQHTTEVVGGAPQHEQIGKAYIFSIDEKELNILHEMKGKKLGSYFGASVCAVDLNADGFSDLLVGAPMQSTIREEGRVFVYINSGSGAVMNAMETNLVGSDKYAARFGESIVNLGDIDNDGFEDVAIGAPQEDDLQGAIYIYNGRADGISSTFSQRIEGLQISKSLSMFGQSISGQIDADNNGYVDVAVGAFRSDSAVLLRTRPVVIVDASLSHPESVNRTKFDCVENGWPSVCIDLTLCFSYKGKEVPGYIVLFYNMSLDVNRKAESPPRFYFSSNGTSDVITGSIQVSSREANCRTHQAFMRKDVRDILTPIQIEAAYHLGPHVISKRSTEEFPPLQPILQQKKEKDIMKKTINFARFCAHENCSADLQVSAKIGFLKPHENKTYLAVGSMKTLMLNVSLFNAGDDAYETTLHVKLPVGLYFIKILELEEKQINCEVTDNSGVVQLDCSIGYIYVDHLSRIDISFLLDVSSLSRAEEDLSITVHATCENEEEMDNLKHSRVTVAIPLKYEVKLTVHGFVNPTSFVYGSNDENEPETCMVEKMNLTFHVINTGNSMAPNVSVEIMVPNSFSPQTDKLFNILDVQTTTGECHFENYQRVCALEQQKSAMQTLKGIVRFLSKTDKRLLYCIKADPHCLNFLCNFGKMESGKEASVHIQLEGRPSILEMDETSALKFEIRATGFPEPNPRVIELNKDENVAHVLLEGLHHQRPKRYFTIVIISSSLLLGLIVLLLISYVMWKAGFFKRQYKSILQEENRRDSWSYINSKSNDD
- Sequence (P26010 20-798 G629S, chain 2 of 2, further chain): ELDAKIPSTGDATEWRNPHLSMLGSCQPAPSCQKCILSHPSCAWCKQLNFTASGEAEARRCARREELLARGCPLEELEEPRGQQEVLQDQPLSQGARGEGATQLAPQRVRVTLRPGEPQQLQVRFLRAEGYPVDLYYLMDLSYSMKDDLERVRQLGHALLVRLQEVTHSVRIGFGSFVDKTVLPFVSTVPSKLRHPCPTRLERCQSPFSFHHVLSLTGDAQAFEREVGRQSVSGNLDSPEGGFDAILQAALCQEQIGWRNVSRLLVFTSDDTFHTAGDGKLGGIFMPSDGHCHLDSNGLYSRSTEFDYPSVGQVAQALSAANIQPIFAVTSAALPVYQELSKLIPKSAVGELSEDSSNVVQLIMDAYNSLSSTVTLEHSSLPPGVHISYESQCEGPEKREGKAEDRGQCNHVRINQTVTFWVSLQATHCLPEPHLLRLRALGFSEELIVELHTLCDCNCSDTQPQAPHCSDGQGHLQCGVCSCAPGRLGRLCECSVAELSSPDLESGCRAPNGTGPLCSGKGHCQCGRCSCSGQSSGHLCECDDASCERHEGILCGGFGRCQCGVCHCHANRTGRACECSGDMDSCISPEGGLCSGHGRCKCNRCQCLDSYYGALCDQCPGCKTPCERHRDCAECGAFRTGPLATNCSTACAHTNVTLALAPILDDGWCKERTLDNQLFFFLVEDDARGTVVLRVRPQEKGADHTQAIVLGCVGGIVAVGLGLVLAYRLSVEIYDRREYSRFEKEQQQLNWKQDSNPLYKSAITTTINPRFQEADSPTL
- assay protocol: FACS on transfected 293 cells, 1 microG/ml, PE anti-human IgG
Form field: fluorescence staining intensity (geometric mean) (one value per entry).

Observe how each entry below is paired with its result.
2F12 (antibody, V domains shown, Fully human monoclonal from XenoMouse (human IgG2 or IgG4); kappa light chain; also called 2F12K; 2F12H) VH: QVQLVQSGAEVKKPGASVKVSCKVSGYTVTDLSMHWVRQAPGKGLEWMGGFDPQDGETIYAQKFQGRVTMTEDTSTDTAYMELRSLRSEDTAVYYCTTESSSAWFDPWGQGTLVTVSS VL: DIQMTQSPSSVFASVGDRVTITCRASQGISSWLAWYQQKPGKAPNLLIYGASSLQNGVPLRFSGSGSGTDFTLTISSLQPEDFATYYCQQANSFPWTFGQGTKVEIK :: 80
3A5 (antibody, V domains shown, Fully human monoclonal from XenoMouse (human IgG2 or IgG4); kappa light chain; also called 3A5K; 3A5H) VH: QVQLVQSGAEVKKPGASVKVSCKVSGYTLNDLSMHWVRQAPGKGLEWMGGFDPAEGKIISAQKFQDRVTMTDDTSTDTAYMELSSLRSEDSAVYYCATLDFSSWFDPWGQGTLVTVSS VL: DIQMTQSPSSVSASVGDRVTITCRASQGVISWLAWYQQKPGMAPKLLIYAASILQSGVPSRFSGSGSGTDFTLTISSLQPEDFATYYCQQANSFPWTFGQGTNVEIK :: 80

Ask | Sample 22B2 (antibody, V domains shown, Fully human monoclonal from XenoMouse (human IgG2 or IgG4); kappa light chain; also called 22B2K; 22B2H) VH: EVQLVQSGAEVKEPGESLKISCKGSGYIFTSYWIAWVRQLPGKGLEWMGIIDPNDSDTRYSPSFQGQVTISADKSIHTAYLQWSSLKASDTAMYYCATHRLWLGTLPGGFYIWGQGTMVTVSS VL: DVQMTQSPSSLSASVGDRVTITCQASQDITDYLNWYQQKPGKAPKLLIYDTSNLEAGVPSRFSGSGSGTDFTFTISSLQPEDIATYYCQQYDILPYSFGQGTDLEIK — what was its fluorescence staining intensity (geometric mean)?
Reply | 65
